# study.system: T1, mouse GLP-1 receptor (mouse, UniProt O35659 22-463)
# T1 sequence (looked up): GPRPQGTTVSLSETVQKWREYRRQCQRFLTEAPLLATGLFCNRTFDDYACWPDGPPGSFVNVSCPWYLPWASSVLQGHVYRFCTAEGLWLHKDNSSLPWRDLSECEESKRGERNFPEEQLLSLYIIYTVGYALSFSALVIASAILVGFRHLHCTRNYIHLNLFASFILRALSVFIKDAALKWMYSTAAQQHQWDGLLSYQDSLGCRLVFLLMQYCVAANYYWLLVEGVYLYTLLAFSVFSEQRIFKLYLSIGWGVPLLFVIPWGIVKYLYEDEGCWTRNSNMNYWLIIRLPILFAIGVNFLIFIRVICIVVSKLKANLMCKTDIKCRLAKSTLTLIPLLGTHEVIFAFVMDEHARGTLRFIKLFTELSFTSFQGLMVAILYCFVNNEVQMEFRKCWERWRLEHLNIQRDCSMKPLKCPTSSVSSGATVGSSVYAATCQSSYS
# protocol.description: cell-based or functional assay
Non-standard residues stand in square brackets, D forms with d. Primed or numbered codes have the meaning given here. No end group written: not given here. mPEG40k‑branched = branched 40 kDa PEG (2 × 20 kDa) maleimide, attached to the Cys thiol; mPEG 20 kDa = 20 kD mPEG-maleimide, thioether-linked to the Cys; Aib′ = alpha aminobutyric acid (source's wording)
The entries below are paired with their reported EC50 mouse.
Quick reminder: number only, in nM, skip the unit.

binder	EC50 mouse (nM)
HGEGTFTSDVSSYLE[Aib′]QAAKEFIAWLVKGRGC(mPEG40k‑branched)SG-NH2 [cgGLP-29 (SEQ ID NO: 22 + 40k branched PEG)]	1
H[Aib′]EGTFTSDVSSYLE[Aib′]QAAKEFIAWLVKGRGC(mPEG 20 kDa)SG [cgGLP-20 (SEQ ID NO: 25 + 20k mPEG)]	1.5

Query binder follows.
Given item HGEGTFTSDVSSYLE[Aib′]QAAKEFIAWLVKGRGC(mPEG‑maleimide 10 kDa)SG-NH2 [cgGLP-26 (SEQ ID NO: 22 + 10k PEG)] , the value recorded as its EC50 mouse is 0.9

// data source = patent US20100048468A1
